measurement setup: human gut metagenome, 24 h, 2 µM; note: call rule not given here
test readout: Bacterial Biotransformation

CN(CCOc1ccc(CC2SC(=O)NC2=O)cc1)c1ccccn1.O=C(O)/C=C\C(=O)O (stereo unspecified) [ROSIGLITAZONE MALEATE]: Compound NOT metabolized
C#C[C@]1(OC(C)=O)CC[C@H]2[C@@H]3CCC4=C[C@@H](OC(C)=O)CC[C@@H]4[C@H]3CC[C@@]21C [ETHYNODIOL DIACETATE]: Compound metabolized
OC(c1cc(C(F)(F)F)nc2c(C(F)(F)F)cccc12)C1CCCCN1 (stereo unspecified) [MEFLOQUINE]: Compound NOT metabolized
N#Cc1ccc2[nH]cc(CCCCN3CCN(c4ccc5oc(C(N)=O)cc5c4)CC3)c2c1 [VILAZODONE]: Compound metabolized
Nc1nc(N)nc(-c2cc(Cl)ccc2Cl)n1.O=C(O)/C=C\C(=O)O [IRSOGLADINE MALEATE]: Compound NOT metabolized
COc1ccnc(C[S+]([O-])c2nc3ccc(OC(F)F)cc3[nH]2)c1OC (stereo unspecified) [PANTOPRAZOLE]: Compound metabolized
CN[C@H]1CC[C@@H](c2ccc(Cl)c(Cl)c2)c2ccccc21 [SERTRALINE]: Compound NOT metabolized
O=P1(N(CCCl)CCCl)NCCCO1 (stereo unspecified) [CYCLOPHOSPHAMIDE ANHYDROUS]: Compound NOT metabolized

Documented Bacterial Biotransformation of CCN(C(C)=O)c1cccc(-c2ccnc3c(C#N)cnn23)c1 [ZALEPLON] : Compound NOT metabolized

Documented Bacterial Biotransformation of CCOc1ccccc1OCCN[C@H](C)Cc1ccc(OC)c(S(N)(=O)=O)c1.Cl [TAMSULOSIN HYDROCHLORIDE] : Compound NOT metabolized

Documented Bacterial Biotransformation of CC(C)C[C@H]1C(=O)N2CCC[C@H]2[C@]2(O)O[C@](NC(=O)[C@@H]3C=C4c5cccc6[nH]c(Br)c(c56)C[C@H]4N(C)C3)(C(C)C)C(=O)N12.CS(=O)(=O)O [BROMOCRIPTINE MESYLATE] : Compound metabolized

Documented Bacterial Biotransformation of COc1cc(NC(C)CCCN)c2ncccc2c1.O=P(O)(O)O.O=P(O)(O)O (stereo unspecified) [PRIMAQUINE PHOSPHATE] : Compound NOT metabolized

Documented Bacterial Biotransformation of CN1CCN(C2=Nc3ccccc3Oc3ccc(Cl)cc32)CC1.O=C(O)CCC(=O)O [LOXAPINE SUCCINATE] : Compound NOT metabolized

Documented Bacterial Biotransformation of O=C(NC(Cc1cc(=O)[nH]c2ccccc12)C(=O)O)c1ccc(Cl)cc1 (stereo unspecified) [REBAMIPIDE] : Compound NOT metabolized

Documented Bacterial Biotransformation of CC(=O)CCCCn1c(=O)c2c(ncn2C)n(C)c1=O [PENTOXIFYLLINE] : Compound NOT metabolized

Documented Bacterial Biotransformation of CCCN1C[C@H](CSC)C[C@@H]2c3cccc4[nH]cc(c34)C[C@H]21.CS(=O)(=O)O [PERGOLIDE MESYLATE] : Compound NOT metabolized

---

measurement setup: human gut metagenome, 24 h, 2 µM
test readout: Bacterial Biotransformation

CC(C)[C@H]1CC[C@H](C(=O)N[C@H](Cc2ccccc2)C(=O)O)CC1 [NATEGLINIDE]: Compound metabolized
CC(=O)CCCCn1c(=O)c2c(ncn2C)n(C)c1=O: Compound NOT metabolized
CCOC(=O)[C@H](CCc1ccccc1)N[C@@H](C)C(=O)N1Cc2ccccc2C[C@H]1C(=O)O: Compound metabolized
COc1ccc(CN2CCNCC2)c(OC)c1OC.Cl.Cl [TRIMETAZIDINE DIHYDROCHLORIDE]: Compound NOT metabolized
CC(C)(C)N.CCC[C@H](N[C@@H](C)C(=O)N1[C@H](C(=O)O)C[C@@H]2CCCC[C@@H]21)C(=O)OCC: Compound metabolized

Documented Bacterial Biotransformation of CC(C)C[C@H]1C(=O)N2CCC[C@H]2[C@]2(O)O[C@](NC(=O)[C@@H]3C=C4c5cccc6[nH]c(Br)c(c56)C[C@H]4N(C)C3)(C(C)C)C(=O)N12.CS(=O)(=O)O [BROMOCRIPTINE MESYLATE] : Compound NOT metabolized

Documented Bacterial Biotransformation of `CC[C@@]1(O)C(=O)OCc2c1cc1n(c2=O)Cc2cc3c(CN(C)C)c(O)ccc3nc2-1` : Compound NOT metabolized
